Biological target: UniProt:Q04771
pIC50: −log10 of the molar value.
Experimental endpoint: pIC50

Hi! Can you tell me pIC50 for each of these compounds?
1. COc1cc(-n2cnc(Nc3nc(N4CC[C@H](N(C)C)C4)nc4ccoc34)c2)cc(OC)c1OC [Compound 261a]
2. N#CC1CC(n2cnc(Nc3nc(N4CCCC4c4ccccn4)nn4cccc34)c2)C1 (stereo not shown) [Compound 59c]
3. COc1cc(-n2cnc(Nc3nc(N4CCC[C@H]4CO)nc4ccoc34)c2)cc(OC)c1OC [Compound 103b]
4. COc1ccc(-n2cnc(Nc3nc(N4CCC[C@H]4CO)nn4cccc34)c2)cc1C(F)(F)F [Compound 320b]

RESULT:
1. > 7.00
2. 6.00 to 7.00
3. > 7.00
4. > 7.00

Hi! Can you tell me pIC50 for each of these compounds?
1. COc1cc(-n2cnc(Nc3nc(N4CCC[C@@H]4C(N)=O)nn4cccc34)c2)cc(OC)c1OC [Compound 210a]
2. Cc1cc2nc(N3CCC[C@H]3CO)nc(Nc3cn(-c4ccc(F)cc4)cn3)c2s1 [Compound 42b]
3. COc1cc(-n2cnc(Nc3nc(N4CCC[C@H]4C(N)=O)nc4c3CN(Cc3ccccc3)CC4)c2)cc(OC)c1OC [Compound 152a]

RESULT:
1. > 7.00
2. > 7.00
3. 6.00 to 7.00

----------
Target: ALK2 (Homo sapiens (Human))
Sequence (Q04771 21-509): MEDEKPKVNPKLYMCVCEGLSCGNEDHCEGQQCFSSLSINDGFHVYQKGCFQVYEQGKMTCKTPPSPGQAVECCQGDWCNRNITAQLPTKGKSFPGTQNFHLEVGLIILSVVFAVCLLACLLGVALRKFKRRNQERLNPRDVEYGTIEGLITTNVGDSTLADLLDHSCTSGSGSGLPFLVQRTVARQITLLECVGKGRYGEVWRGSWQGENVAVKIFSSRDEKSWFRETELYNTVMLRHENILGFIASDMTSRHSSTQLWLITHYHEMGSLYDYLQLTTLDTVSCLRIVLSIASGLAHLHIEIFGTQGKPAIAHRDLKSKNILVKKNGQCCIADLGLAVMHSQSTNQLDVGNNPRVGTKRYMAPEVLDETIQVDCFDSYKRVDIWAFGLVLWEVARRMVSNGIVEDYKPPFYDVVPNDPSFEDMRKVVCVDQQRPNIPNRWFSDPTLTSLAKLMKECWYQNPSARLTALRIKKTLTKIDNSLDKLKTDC
Answer each item with its documented IC50.

Sample records with IC50:
• COc1cc(-n2cnc(Nc3nc4c(c(N5CCC[C@H]5CO)n3)CCC4)c2)cc(OC)c1OC [Compound 271c] = < 100 nM
• COc1cc(-n2cnc(Nc3nc(N4CCC[C@H]4CO)nc4[nH]ncc34)c2)cc(OC)c1OC [Compound 329a] = < 100 nM
• Cn1cnc(Nc2nc(N3CCCC3c3ccccc3)nn3cccc23)c1 (stereo not drawn) [Compound 10a] = < 100 nM
• OC[C@@H]1CCCN1c1nc(Nc2cn([C@H]3C[C@H](O)C3)cn2)c2cccn2n1 [Compound 471e] = < 100 nM
• COc1cc(-n2cnc(Nc3nc(N4[C@H](CO)C[C@H]5C[C@H]54)c4cccn4n3)c2)cc(OC)c1OC [Compound 325e] = < 100 nM
• CNC(=O)[C@@H]1CCCN1c1nc(Nc2cn(-c3cc(OC)c(OC)c(OC)c3)cn2)c2occc2n1 [Compound 252a] = < 100 nM

Hi! Can you tell me IC50 for each of these compounds?
1. COc1cc(-n2cnc(Nc3ccc4ccccc4n3)c2)cc(OC)c1OC [Compound 179b]
2. COc1cc(-n2cnc(Nc3nc(N4CCC[C@H]4C(N)=O)nc4c3c(C)nn4C)c2)cc(OC)c1OC [Compound 373c]

RESULT:
1: < 100 nM; 2: > 1000 nM

Hi! Can you tell me IC50 for each of these compounds?
1. COc1cc(-n2cnc(Nc3nc(N4CCC[C@H]4C(F)(F)F)c4cccn4n3)c2)cc(OC)c1OC [Compound 206b]
2. COc1cncc(-n2cnc(Nc3nc(N4CCC[C@H]4CO)nn4cccc34)c2)c1 [Compound 321b]
3. COc1cc(-n2cnc(Nc3nc4c(c(N5CCC[C@H]5CO)n3)CN(C(=O)OC(C)(C)C)C4)c2)cc(OC)c1OC [Compound 359c]

RESULT:
< 100 nM
< 100 nM
< 100 nM

----------
pIC50: −log10 of the molar value.
Notes on pIC50 obtained with UniProtKB Q04771.

Sample records with pIC50:
* Cn1cnc(Nc2nc(N3CCCC3c3ccccc3)nc3ccoc23)c1 (centres unmarked) [Compound 13a] | > 7.00
* COc1cc(-c2cnc(Nc3nc(N4CCC[C@H]4CO)nn4cccc34)s2)cc(OC)c1OC [Compound 461c] | > 7.00
* COc1cc(-n2cnc(Nc3nc(N4CCC[C@H]4CO)nc4c3cnn4CC3CCCCC3)c2)cc(OC)c1OC [Compound 453d] | > 7.00
* COc1cc(-n2cnc(Nc3nc(N4CCC[C@H]4C(N)=O)nc4cc[nH]c34)c2)cc(OC)c1OC [Compound 162b] | > 7.00
* COc1cc(-n2cnc(Nc3nc(N4CCC[C@H]4C(N)=O)nc4sc(CN5CCCC5)cc34)c2)cc(OC)c1OC [Compound 403h] | > 7.00
* COc1cc(-n2cnc(Nc3nc4c(c(N5CCC[C@H]5C(N)=O)n3)CN(Cc3ccccc3)CC4)c2)cc(OC)c1OC [Compound 213b] | > 7.00
* COc1cc(-n2cnc(Nc3nc(N4CCC[C@H]4CO)nc4c3CCN(Cc3ccccc3)C4)c2)cc(OC)c1OC [Compound 153c] | > 7.00
* COc1cc(-n2cnc(Nc3nc(N4CCC[C@H]4C(N)=O)c4ccsc4n3)c2)cc(OC)c1OC [Compound 132b] | > 7.00
* COc1cc(-n2cnc(Nc3nc(N4CCC[C@H]4CO)nc4cccc(F)c34)c2)cc(OC)c1OC [Compound 341a] | > 7.00
* OC[C@@H]1CCCN1c1nc(Nc2cn(-c3cccnc3)cn2)c2cccn2n1 [Compound 39c] | > 7.00

Hi! Can you tell me pIC50 for each of these compounds?
1. COc1cc(-n2cnc(Nc3nc4c(c(N5CCC[C@H]5C(N)=O)n3)CNCC4)c2)cc(OC)c1OC [Compound 193c]
2. COc1cc(-n2cnc(Nc3nc(N4CCC[C@H]4C(N)=O)nn4cccc34)c2)cc(C(=O)NC2CCCC2)c1O [Compound 351d]

RESULT:
1. > 7.00
2. < 6.00

Hi! Can you tell me pIC50 for each of these compounds?
1. COc1cc(-n2cnc(Nc3nc4c(c(N5CCC[C@H]5CO)n3)CCCC4)c2)cc(OC)c1OC [Compound 226c]
2. COc1cc(-n2cnc(Nc3nc4c(c(N5CCC[C@H]5CO)n3)CCN(Cc3cccc(C#N)c3)C4)c2)cc(OC)c1OC [Compound 220a]
3. COc1cc(-n2cnc(Nc3nc(N4CCC[C@H]4CO)nc4sc(CN5CCCC5)cc34)c2)cc(OC)c1OC [Compound 384b]
4. COc1cc(-n2cnc(Nc3nc4c(c(N5CCC[C@H]5CO)n3)CN(C(=O)C3CC3)CC4)c2)cc(OC)c1OC [Compound 239a]
5. COc1cc(-n2cnc(Nc3nc(N4CCC[C@H]4CO)c4ncccc4n3)c2)cc(OC)c1OC [Compound 175b]
6. COc1cc(-n2cnc(Nc3nc(N4CCC[C@@H]4CO)nc4ccccc34)c2)cc(OC)c1OC [Compound 304a]

RESULT:
["> 7.00", "> 7.00", "> 7.00", "> 7.00", "> 7.00", "> 7.00"]

Hi! Can you tell me pIC50 for each of these compounds?
1. COc1cc(-n2cnc(Nc3nc(N4CCC[C@H]4C(N)=O)nc4ccn(S(=O)(=O)c5ccc(C)cc5)c34)c2)cc(OC)c1OC [Compound 162a]
2. OC[C@@H]1CCCN1c1nc(Nc2cn(-c3ccc4c(c3)OC(F)(F)O4)cn2)c2occc2n1 [Compound 339e]

RESULT:
1. 6.00 to 7.00
2. 6.00 to 7.00

Hi! Can you tell me pIC50 for each of these compounds?
1. COc1cc(-n2cnc(Nc3nc(N4C(=O)CC[C@H]4CO)nc4ccoc34)c2)cc(OC)c1OC [Compound 270a]
2. COc1cc(-n2cnc(Nc3nc(N4CCC[C@H]4C(N)=O)nc4cc(CN5CCCCC5)oc34)c2)cc(OC)c1OC [Compound 315f]
3. COc1cc(-n2cnc(Nc3nc(N4CC[C@H](O)C4)c4cccn4n3)c2)cc(OC)c1OC [Compound 211b]
4. COc1cc(-n2cnc(Nc3nc(N4CCC[C@H]4CO)c4c(C)nn([C@H]5CC[C@@H](O)CC5)c4n3)c2)cc(OC)c1OC [Compound 447c]
5. COc1cc(-n2cnc(Nc3nc(N4CCCC4)nc4ncccc34)c2)cc(OC)c1OC [Compound 186a]
6. COc1cc(-n2cnc(Nc3nc4c(c(N5CCC[C@H]5CO)n3)CCN(Cc3ccccc3)C4)c2)cc(OC)c1OC [Compound 165b]
7. COc1cc(-c2ccc(Nc3nc(N4CCC[C@H]4CO)c4ccccc4n3)nc2)cc(OC)c1OC [Compound 357d]

RESULT:
> 7.00
> 7.00
> 7.00
> 7.00
> 7.00
> 7.00
< 6.00

Hi! Can you tell me pIC50 for each of these compounds?
1. Cn1cnc(Nc2nc(N3CCCC3c3cccnc3)nn3cccc23)c1 (centres unmarked) [Compound 19a]
2. OC[C@@H]1CCCN1c1nc(Nc2cn(-c3ccc4c(c3)OCO4)cn2)c2ccsc2n1 [Compound 428b]

RESULT:
> 7.00
> 7.00
